- Tested on: Fusarium virguliforme (Fv)
- test_method_notes: Growth inhibition assay of fungal pathogens, Fv
- Type: cell-based
- stated_conditions: 48 h, read-out: Concentration at 90% Inhibition Fv, Fusarium virguliforme, growth inhibition at 48 hours vs 2% DMSO control
quantity_kind: IC90 (µg/mL)

compound	assayed_system	quantity_kind	units_symbol	reported_value
Cc1c(-n2nccn2)sc2c1c(=O)n(C(C)(C)C(=O)NC(C)C)c(=O)n2C[C@H](O[C@H]1CC[C@@H](O)CC1)c1cc(F)ccc1OCC#N [Compound I-222]	Fusarium virguliforme (Fv)	IC90	µg/mL	2
COc1ccccc1[C@@H](O)Cn1c(=O)n(C(C)(C)C(=O)NC(C)C)c(=O)c2c(C)c(-n3nccn3)sc21 [Compound I-256]	Fusarium virguliforme (Fv)	IC90	µg/mL	0.08
COc1ccc(F)cc1[C@H](Cn1c(=O)n(C(C)(C)C(=O)N2CCCCC2)c(=O)c2c(C)c(-n3nccn3)sc21)OC1CCC(=O)CC1 [Compound I-34]	Fusarium virguliforme (Fv)	IC90	µg/mL	0.4
Cc1c(-n2nccn2)sc2c1c(=O)n(C(C)(C)C(=O)NC(C)C)c(=O)n2C[C@H](OC(C)C)c1cc(F)ccc1OCC#N [Compound I-56]	Fusarium virguliforme (Fv)	IC90	µg/mL	0.08
C=CCNC(=O)C(C)(C)n1c(=O)c2c(C)c(-n3nccn3)sc2n(C[C@H](OC2CCOCC2)c2cc(F)ccc2OC)c1=O [Compound I-70]	Fusarium virguliforme (Fv)	IC90	µg/mL	0.4
COc1ccc(F)cc1[C@H](Cn1c(=O)n(C(C)(C)C(=O)N2CCCCC2)c(=O)c2c(C)c(-n3nccn3)sc21)OC1CCOCC1 [Compound I-24]	Fusarium virguliforme (Fv)	IC90	µg/mL	0.4
COc1ccccc1[C@H](Cn1c(=O)n(C(C)(C)C(=O)NC(C)C)c(=O)c2c(C)c(-n3nccn3)sc21)OCCC#N [Compound I-136]	Fusarium virguliforme (Fv)	IC90	µg/mL	0.4
Cc1c(-n2nccn2)sc2c1c(=O)n(C(C)(C)C(=O)NC(C)C)c(=O)n2C[C@H](OCC(C)(C)O)c1cc(F)ccc1OCC#N [Compound I-235]	Fusarium virguliforme (Fv)	IC90	µg/mL	2
COc1ccc(F)cc1[C@H](Cn1c(=O)n([C@H](C)C(=O)NC(C)C)c(=O)c2c(C)c(-n3nccn3)sc21)OCCC#N [Compound I-138]	Fusarium virguliforme (Fv)	IC90	µg/mL	0.4
COc1ccc(F)cc1[C@H](Cn1c(=O)n([C@H](C)C(=O)NC(C)C)c(=O)c2c(C)c(-n3nccn3)sc21)OCCO [Compound I-89]	Fusarium virguliforme (Fv)	IC90	µg/mL	2
CCOC(=O)c1ccccc1[C@H](Cn1c(=O)n(C(C)(C)C(=O)NC(C)C)c(=O)c2c(C)c(-n3nccn3)sc21)OCCC#N [Compound I-275]	Fusarium virguliforme (Fv)	IC90	µg/mL	2
Cc1c(-n2nccn2)sc2c1c(=O)n(C(C)(C)C(=O)NC(C)C)c(=O)n2C[C@H](OC(C)C)c1cc(F)ccc1CCC#N [Compound I-234]	Fusarium virguliforme (Fv)	IC90	µg/mL	0.08
COc1ccc(F)cc1[C@H](Cn1c(=O)n(C(C)(C)C(=O)NC(C)C)c(=O)c2c(C)c(-n3nccn3)sc21)OCCS(C)(=O)=O [Compound I-248]	Fusarium virguliforme (Fv)	IC90	µg/mL	2
COc1ccc(F)cc1[C@H](Cn1c(=O)n(CC(=O)NC(C)C)c(=O)c2c(C)c(-n3nccn3)sc21)OC(C)C [Compound I-35]	Fusarium virguliforme (Fv)	IC90	µg/mL	0.4
COc1ccc(F)cc1[C@H](Cn1c(=O)n(C(C)(C)C(=O)NCC#N)c(=O)c2c(C)c(-n3nccn3)sc21)OC(C)C [Compound I-52]	Fusarium virguliforme (Fv)	IC90	µg/mL	2
COc1ccccc1[C@H](O)Cn1c(=O)n(C(C)(C)C(=O)NC(C)C)c(=O)c2c(C)c(-n3nccn3)sc21 [Compound I-251]	Fusarium virguliforme (Fv)	IC90	µg/mL	2
COc1ccc(F)cc1[C@H](Cn1c(=O)n(C(C)(C)C(=O)N2CCCCC2)c(=O)c2c(C)c(-n3nccn3)sc21)OCC(C)C [Compound I-11]	Fusarium virguliforme (Fv)	IC90	µg/mL	2
COc1ccc(F)cc1[C@H](Cn1c(=O)n(C(C)(C)C(=O)NC(C)C)c(=O)c2c(C)c(-n3nccn3)sc21)OC[C@H](C)O [Compound I-47]	Fusarium virguliforme (Fv)	IC90	µg/mL	0.4
COc1ccc(F)cc1[C@H](Cn1c(=O)n(C(C)(C)C(=O)NC(C)C)c(=O)c2c(C)c(-n3nccn3)sc21)OC(C)C [Compound I-4]	Fusarium virguliforme (Fv)	IC90	µg/mL	0.4
COc1ccc(F)cc1[C@H](Cn1c(=O)n(C(C)(C)C(=O)NC2CCCCC2)c(=O)c2c(C)c(-n3nccn3)sc21)OC1CCOCC1 [Compound I-28]	Fusarium virguliforme (Fv)	IC90	µg/mL	0.4

The reported measurements were obtained from patent US10800791B2.
